# Tested on: PC-3
# TEST_DETAILS: Cytotoxicity against human PC-3 cells assessed as cell growth inhibition measured after 72 hrs by MTT assay
# Format: functional, cell-based
# APPLIED_CONDITIONS: PC-3, 72 h
pIC50: −log10 of the molar value.
Field: pIC50. Provide a value for each of the molecules that follow.

Observe how each entry below is paired with its result.
STRUCTURE_SMILES_STRING: CC(=O)O[C@H]1CC[C@]2(C)[C@H]3CC[C@]4(C)COC(=O)C[C@H]4[C@@H]3C[C@@H](OC(C)=O)[C@@]2(O)C1
pIC50: 5.18
//
STRUCTURE_SMILES_STRING: CC(=O)O[C@H]1CC[C@]2(C)[C@H]3CC[C@]4(C)COC(=O)C[C@H]4[C@@H]3C[C@@H](Br)[C@@]2(Br)C1
pIC50: < 4.00
//
STRUCTURE_SMILES_STRING: CO[C@]12C[C@@H](O)CC[C@]1(C)[C@H]1CC[C@]3(C)COC(=O)C[C@H]3[C@@H]1C[C@H]2O
pIC50: 4.60
//
STRUCTURE_SMILES_STRING: C[C@]12CC[C@H]3[C@@H](CC(=O)[C@@]4(O)C[C@@H](O)CC[C@]34C)[C@@H]1CC(=O)OC2
pIC50: < 4.00
//
STRUCTURE_SMILES_STRING: CC(=O)O[C@H]1CC[C@]2(C)[C@H]3CC[C@]4(C)COC(=O)C[C@H]4[C@@H]3C[C@@H](O)[C@@]2(Br)C1
pIC50: < 4.00
//
STRUCTURE_SMILES_STRING: CC(=O)O[C@H]1CC[C@]2(C)[C@H]3CC[C@]4(C)COC(=O)C[C@H]4[C@@H]3C[C@@H](Cl)[C@@]2(Cl)C1
pIC50: < 4.00

Provide pIC50 values for the following items, in order.
1. CC(=O)O[C@H]1CC[C@]2(C)[C@H]3CC[C@]4(C)COC(=O)C[C@H]4[C@@H]3C[C@@H](O)[C@@]2(F)C1
2. C[C@]12CC[C@H]3[C@@H](C[C@@H](O)[C@@]4(O)C[C@@H](O)CC[C@]34C)[C@@H]1CC(=O)OC2
3. CC(=O)O[C@H]1CC[C@]2(C)[C@H]3CC[C@]4(C)COC(=O)C[C@H]4[C@@H]3C[C@@H]3O[C@@]32C1
4. CC(=O)O[C@H]1CC[C@]2(C)[C@H]3CC[C@]4(C)COC(=O)C[C@H]4[C@@H]3C[C@H]3O[C@]32C1
5. C[C@]12CC[C@H]3[C@@H](CC(=O)[C@@]4(O)CC(=O)CC[C@]34C)[C@@H]1CC(=O)OC2

< 4.00
< 4.00
< 4.00
< 4.00
< 4.00

###

Field: IC50. Provide a value for each of the molecules that follow.
# Tested on: MRC5
# TEST_DETAILS: Cytotoxicity against human MRC5 cells assessed as cell growth inhibition measured after 72 hrs by MTT assay
# Type: cell-based
# APPLIED_CONDITIONS: MRC5, 72 h

Observe how each entry below is paired with its result.
MOLECULE: COc1cccc2c1C(=O)c1c(O)c3c(c(O)c1C2=O)C[C@@](O)(C(=O)CO)C[C@@H]3O[C@H]1C[C@H](N)[C@H](O)[C@H](C)O1 [DOXORUBICIN]
SYSTEM: MRC5
IC50: 0.24 µM

MOLECULE: CC(=O)O[C@H]1CC[C@]2(C)[C@H]3CC[C@]4(C)COC(=O)C[C@H]4[C@@H]3CC(=O)[C@@]2(O)C1
SYSTEM: MRC5
IC50: > 100 µM

MOLECULE: CC(=O)O[C@H]1CC[C@]2(C)[C@H]3CC[C@]4(C)COC(=O)C[C@H]4[C@@H]3C[C@@H](OC(C)=O)[C@@]2(O)C1
SYSTEM: MRC5
IC50: > 100 µM

MOLECULE: CC(=O)O[C@H]1CC[C@]2(C)[C@H]3CC[C@]4(C)COC(=O)C[C@H]4[C@@H]3C[C@@H](Cl)[C@@]2(Cl)C1
SYSTEM: MRC5
IC50: > 100 µM

MOLECULE: C[C@]12CC[C@H]3[C@@H](C[C@@H](O)[C@@]4(O)C[C@@H](O)CC[C@]34C)[C@@H]1CC(=O)OC2
SYSTEM: MRC5
IC50: > 100 µM

Provide IC50 values for the following items, in order.
1. CC(=O)O[C@H]1CC[C@]2(C)[C@H]3CC[C@]4(C)COC(=O)C[C@H]4[C@@H]3C[C@@H](O)[C@@]2(F)C1
2. CC(=O)O[C@H]1CC[C@]2(C)[C@H]3CC[C@]4(C)COC(=O)C[C@H]4[C@@H]3C[C@@H](Br)[C@@]2(Br)C1
3. CC(=O)O[C@H]1CC[C@]2(C)[C@H]3CC[C@]4(C)COC(=O)C[C@H]4[C@@H]3C[C@H](Br)[C@]2(O)C1
4. C[C@]12CCC(=O)C(O)=C1CC[C@@H]1[C@@H]2CC[C@]2(C)C(=O)CC[C@@H]12 [FORMESTANE]
5. C[C@]12CC[C@H]3[C@@H](CC(=O)[C@@]4(O)C[C@@H](O)CC[C@]34C)[C@@H]1CC(=O)OC2
6. CC(=O)O[C@H]1CC[C@]2(C)[C@H]3CC[C@]4(C)COC(=O)C[C@H]4[C@@H]3C[C@@H](O)[C@@]2(Cl)C1

1. > 100 µM
2. > 100 µM
3. > 100 µM
4. 0.1 µM
5. > 100 µM
6. > 100 µM

Provide IC50 values for the following items, in order.
1. CC(=O)O[C@H]1CC[C@]2(C)[C@H]3CC[C@]4(C)COC(=O)C[C@H]4[C@@H]3C[C@H]3O[C@]32C1
2. CO[C@@H]1C[C@H]2[C@@H]3CC(=O)OC[C@@]3(C)CC[C@@H]2[C@@]2(C)CC[C@H](O)C[C@]12O
3. CC(=O)O[C@H]1CC[C@]2(C)[C@H]3CC[C@]4(C)COC(=O)C[C@H]4[C@@H]3C[C@@H](O)[C@@]2(Br)C1
4. CC(=O)O[C@H]1CC[C@]2(C)[C@H]3CC[C@]4(C)COC(=O)C[C@H]4[C@@H]3C[C@@H]3O[C@@]32C1
5. CO[C@]12C[C@@H](O)CC[C@]1(C)[C@H]1CC[C@]3(C)COC(=O)C[C@H]3[C@@H]1C[C@H]2O

["> 100 µM", "> 100 µM", "> 100 µM", "> 100 µM", "> 100 µM"]

Provide IC50 values for the following items, in order.
1. C[C@]12CC[C@H]3[C@@H](CC(=O)[C@@]4(O)CC(=O)CC[C@]34C)[C@@H]1CC(=O)OC2
2. CC(=O)O[C@H]1CC[C@]2(C)[C@H]3CC[C@]4(C)COC(=O)C[C@H]4[C@@H]3C[C@@H](O)[C@@]2(O)C1

1. > 100 µM
2. > 100 µM

###

# System: HT-29
# TEST_DETAILS: Cytotoxicity against human HT-29 cells assessed as cell growth inhibition measured after 72 hrs by MTT assay
# Assay type: functional, cell-based
# APPLIED_CONDITIONS: HT-29, 72 h
Field: pIC50. Provide a value for each of the compounds that follow.
Answers are plain numbers, as −log10 of the molar value.

STRUCTURE_SMILES_STRING: C[C@]12CC[C@H]3[C@@H](C[C@@H](O)[C@@]4(O)C[C@@H](O)CC[C@]34C)[C@@H]1CC(=O)OC2
SYSTEM: HT-29
pIC50: 5.03
//
STRUCTURE_SMILES_STRING: CC(=O)O[C@H]1CC[C@]2(C)[C@H]3CC[C@]4(C)COC(=O)C[C@H]4[C@@H]3C[C@@H](O)[C@@]2(O)C1
SYSTEM: HT-29
pIC50: 4.06
//
STRUCTURE_SMILES_STRING: CC(=O)O[C@H]1CC[C@]2(C)[C@H]3CC[C@]4(C)COC(=O)C[C@H]4[C@@H]3C[C@@H](Br)[C@@]2(Br)C1
SYSTEM: HT-29
pIC50: 4.79
//
STRUCTURE_SMILES_STRING: C[C@]12CC[C@H]3[C@@H](CC(=O)[C@@]4(O)CC(=O)CC[C@]34C)[C@@H]1CC(=O)OC2
SYSTEM: HT-29
pIC50: 4.38
//
STRUCTURE_SMILES_STRING: CC(=O)O[C@H]1CC[C@]2(C)[C@H]3CC[C@]4(C)COC(=O)C[C@H]4[C@@H]3C[C@@H](Cl)[C@@]2(Cl)C1
SYSTEM: HT-29
pIC50: 4.96

Provide pIC50 values for the following items, in order.
1. CC(=O)O[C@H]1CC[C@]2(C)[C@H]3CC[C@]4(C)COC(=O)C[C@H]4[C@@H]3C[C@H]3O[C@]32C1
2. CC(=O)O[C@H]1CC[C@]2(C)[C@H]3CC[C@]4(C)COC(=O)C[C@H]4[C@@H]3C[C@@H](O)[C@@]2(F)C1

1: 4.85; 2: 4.67

The measured values listed here are drawn from ChEMBL document CHEMBL4680315.
